System: PCSK9
Format: binding, human
test-settings: spot phage ELISA signal-to-noise on PCSK9
Where no end group is shown, it is not given here.
As shown below, each of these sequences has a reported S/N value.
Please reply with the value in numeric form only.

sequence_code="GPTQSEYGMCGGIGYSGPTVCASGTTCQVLDPMTSQCLPGAS (disulfide (positions not given here)) [PCSK9 CBD 3]" value=2.6

Data point: GCGYWYRVWFCKQDSDCLAGCVCQEPGPCG (disulfide (positions not given here)) [PCSK9 EET I-II 3] ; S/N = 6.4

Form field S/N, entry GCGYWFIQWFCKQDSDCLAGCVCGPNGFCG (disulfide (positions not given here)) [PCSK9 EET I-II 1] : 21.8

sequence GPTQSTYGRCGGIGYSGPTVCASGTTCQVLWPALSWCLPGAS (disulfide (positions not given here)) [PCSK9 CBD 4] , S/N observed: 3.7
